- Tested on: Wolbachia pipientis
- METHOD_SUMMARY: Anti-Wolbachia Cell-Based Screen
- Assay type: functional
- Parameters: scale not given: in the data most compounds retested in dose-response had high values
- EXPERIMENTAL_PARAMETERS: 5 µM
About 13,000 (27%) of roughly 48,000 compounds showed an effect of 50% or more. The list shows a part of the results.
Param label: returns Y when Percent Effect < 10%, returns N otherwise, including exact equality.

Illustrative cases are given below, each with its answer.
CCCn1ccnc1CN1C[C@@H](CN2CCCN(C)CC2)[C@@H](CO)C1    Y
c1ccc(OCCCN2CCOC(CNc3cccnn3)C2)cc1 (stereo unspecified)    N

Next:
Is Percent Effect of `CN1N=C(C(=O)N2CCCN(c3ncccc3C#N)CC2)CCC1=O` strictly below 10%?
Y
